- Test system: Zika virus NS2B-NS3 protease (linked construct)
- Method Notes: Primary screen NINDS Rhodamine qHTS for Zika virus inhibitors (AID 1347160); also: nearly all actives have a fitted effect of over 55% in size
- Condition Description: purified NS2B-NS3 protease, Rhodamine110 substrate fluorescence; series mostly up to 57.1 µM
Records with an inconclusive call do not appear. Active and inactive are the calls of the source. Calls follow the shape of the dose curve; as a rule, active = well fitted inhibition curve with a large enough effect; inconclusive = small, poorly fitted or top-dose-only effect; inactive = no such curve, though single readings can be large or run the other way.
Measure Name: outcome

CC(C)=CCC/C(C)=C/CO[C@@H]1O[C@H](CO)[C@@H](O)[C@H](O)[C@H]1O | inactive
COc1cc2c(cc1O)CC[C@H]1[C@@H]2CC[C@]2(C)[C@H](O)CC[C@@H]12 | inactive
CS(=O)(=O)N(CC(=O)NCC1CC1)c1cc(C(F)(F)F)ccc1Cl | inactive
C[C@H]1CC[C@@]2(OC1)O[C@H]1CC3C4CC[C@H]5C[C@@H](O)[C@H](O)C[C@]5(C)C4=CC(=O)[C@]3(C)[C@H]1[C@@H]2C (stereo not given in full) | inactive
Cc1c(CN2CCN(C(=O)C(C)O)CC2)sc2c(N3CCOCC3)nc(-c3cnc(N)nc3)nc12 (stereo not given) | inactive

Return outcome for the following molecule: `Oc1ccc(CNc2ccccc2F)c2cccnc12`
inactive

Return outcome for the following molecule: CC/C=C/CC1=C(CCCCC(CCC(=O)O)OC(C)=O)CCC1=O (stereo not given)
inactive

Return outcome for the following molecule: `O=C(CCCCN1CCOCC1)Nc1ccc(-c2cccnc2)cc1`
inactive

Return outcome for the following molecule: CC1=CC(=O)CC(C)(CO)C1(O)/C=C/C(C)O[C@@H]1O[C@H](CO)[C@@H](O)[C@H](O)[C@H]1O (stereo not given in full)
inactive

Return outcome for the following molecule: COC(=O)CC1CC(c2ccc(O)cc2)=NO1 (stereo not given)
inactive
